# Test system: MILI (PIWIL2) piRISC loaded with L1MC piRNA (26 nt);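 note: 1 nM active piRISC with 0.1 nM target library at 33 °C single turnover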
# test: pre-steady-state target cleavage rate (min^-1); guide: L1MC piRNA 5'p-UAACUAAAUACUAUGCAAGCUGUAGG; higher = faster piRNA-guided slicing of the target
# stated.conditions: auxiliary factor: 500 nM mouse GTSF1
Would you mind telling me the reported pre-steady-state target cleavage rate of each entry?
Numbers only.

Here's what some known entries look like.
input.sequence | value.observed
UCCUGGAUGAGCUUCCAAAGUAUUUAGUUA | 0.0331
UCCUCCUACAGCUAGCAUAGUAUAUAGUUA | 0.192

For each of the sequences below, state pre-steady-state target cleavage rate.
1. UCCUGGUACAGCAAGCAUAGUAUUUACAAA
2. UCCUGGAUGAGAUUGCAUAGUAUUUAGUUA
3. UCCUGGUUGUGCUUGCAUAGUAUUUAGUUA
4. UCCUGGAUGUCCUUGGAAAGUAUUUAGUUA

-- reply
1. 0.0528
2. 0.153
3. 0.168
4. 0.0226

// batch mode: one pre-steady-state target cleavage rate value per listed entry
1. UCCUGGAUCAGCUCUGCAUAGUAUUUAGUUA
2. UCCUGGAUGUCCUUGCUUAGUAUUAAGUUA
3. UCCUGCUACUAGCUUGCAUAGUAUUUAGUUA

-- reply
1. 0.246
2. 0.0115
3. 0.176

Look at each sequence and report its pre-steady-state target cleavage rate.
1. UCCUGGAUGAGCUAGCAUACUAUUUAGUUA
2. UCCUCCUACAGCUUGGUUAGUAUUUAGUAA

-- reply
[0.0848, 0.204]

Provide reported pre-steady-state target cleavage rate for each item, in the same order as listed.
1. UCCUGGUACAGCUUGCAUAGUAUUUAGUGA
2. UCCUGGAUCAGCUUGCAUAGUAUUUUGAAA

-- reply
1. 0.129
2. 0.108

----------
# Tested on: MILI (PIWIL2) piRISC loaded with piRNA #1 (26 nt);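 note: 1 nM active piRISC with 0.1 nM target library at 33 °C single turnover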
# test: pre-steady-state target cleavage rate (min^-1); guide: piRNA #1 5'p-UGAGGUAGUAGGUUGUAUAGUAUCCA; MIWI and MILI are mouse PIWI proteins and EfPiwi is from a freshwater sponge; tags in brackets are library labels; higher = faster piRNA-guided slicing of the target
# stated.conditions: auxiliary factor: 500 nM mouse GTSF1
The label depends only on pre-steady-state target cleavage rate: yes (1) if it is at least 0.1, no (0) if it is smaller.

Example results:
input.sequence | cat
GGAGACCUAUGUAUGACAACCUACUACCUCA | no (0)
GGAGACGAUACUAUAGAACCUACAACCUCA | no (0)
GGAGACCUUACUAUAUCAACCUACUACCUCA | no (0)
GGAGAGGAUACUAUACAACGUACAACCUCA | no (0)
GGAGACCUAACUAUAGAACCUACUACCUCA | yes (1)
GGAGACCUAUCUAUACAACCUACUUACCUCA | yes (1)

-- ask Decide: pre-steady-state target cleavage rate of `GGAGACCAUUCUAUACAAGCUACUACCUCA` >= 0.1?
-- reply yes (1)

-- ask Record `GGAGAGGAUACUAUACAACCUACCUACCUCA` ; criterion: pre-steady-state target cleavage rate no lower than 0.1. Met?
-- reply yes (1)

-- ask Is the recorded value of pre-steady-state target cleavage rate equal to or greater than 0.1 for this sequence? `GGAGAGGAUACUAAACAACCUACUUCCUCA`
-- reply no (0)
